# Tested on: nutsedge, yellow (yellow nutsedge, Cyperus esculentus)
# experiment: Test C pre-/postemergence: nutsedge, yellow
# Type: in vivo
# run.parameters: Postemergence, 31 g ai/ha; scale 0 to 100 (0 no effect, 100 complete control)
For each record, write down the corresponding Plant response rating, Nutsedge, Yellow.
One number for each entry.

For orientation, consider the following solved cases.
smi | experimental.system | observed.value
Cc1nn(-c2ccc(C(F)(F)F)cn2)nc1Oc1ccnc(C(F)(F)F)c1 | nutsedge, yellow (yellow nutsedge, Cyperus esculentus) | 10
COc1nn(-c2ccc(C(F)(F)F)cc2)nc1Cc1ccnc(C(F)F)c1 | nutsedge, yellow (yellow nutsedge, Cyperus esculentus) | 10
CCc1nn(-c2ccc(F)cc2)nc1Cc1ccnc(C(F)(F)F)c1 | nutsedge, yellow (yellow nutsedge, Cyperus esculentus) | 10
CCOc1nn(-c2ccc(F)cc2)nc1Cc1ccnc(C(F)(F)F)c1 | nutsedge, yellow (yellow nutsedge, Cyperus esculentus) | 10
Cc1nn(-c2ccc(F)c(C(F)(F)F)c2)nc1Cc1ccnc(C(F)(F)F)c1 | nutsedge, yellow (yellow nutsedge, Cyperus esculentus) | 5

I need Plant response rating, Nutsedge, Yellow for every entry listed below, if you could help.
1. Fc1ccc(-n2nc(Cc3ccnc(C(F)(F)F)c3)c(OC(F)F)n2)cc1
2. CCc1nn(-c2ccc(C(F)(F)F)cc2)nc1Oc1ccnc(C(F)(F)F)c1
3. Cc1nn(-c2ccc(C(F)(F)F)cn2)nc1Cc1cccc(C(F)(F)F)c1
4. Cc1nn(-c2ccc(C(F)(F)F)cc2)nc1Oc1ccnc(C(F)(F)F)c1

1: 5; 2: 5; 3: 0; 4: 0

---

# Tested on: corn (Zea mays)
# experiment: Test A pre-/postemergence: corn
# Format: in vivo
# run.parameters: Preemergence, 500 g ai/ha; 0 to 100 scale (0 no effect, 100 complete control)
Provide the recorded Plant response rating, Corn for the entries that follow.
Answers are plain numbers.

Below are worked cases with known answers.
smi | experimental.system | Plant response rating, Corn
Cc1nn(-c2ccc(F)cc2)nc1Oc1cccc(C(F)(F)F)n1 | corn (Zea mays) | 0
CCCc1nn(-c2ccc(F)cc2F)nc1Oc1ccnc(C(F)(F)F)c1 | corn (Zea mays) | 30
FC(F)(F)c1cccc(-n2nc(Oc3ccnc(C(F)(F)F)c3)c(C3CC3)n2)c1 | corn (Zea mays) | 0

Provide reported Plant response rating, Corn for each item, in the same order as listed.
1. Cc1nn(-c2ccnc(Cl)c2)nc1Cc1ccnc(C(F)(F)F)c1
2. Cc1nn(-c2ccc(C(F)(F)F)c(F)c2)nc1Oc1ccnc(C(F)(F)F)c1
3. Cc1nn(-c2ccc(C(F)(F)F)cc2)nc1Oc1ccnc(C(F)(F)F)c1
4. CC(=O)Oc1nn(-c2ccc(C(F)(F)F)cc2)nc1Cc1ccnc(C(F)(F)F)c1
5. CC(C)COc1nn(-c2ccc(C(F)(F)F)cc2)nc1Cc1ccnc(C(F)(F)F)c1

1: 30; 2: 20; 3: 30; 4: 0; 5: 0

---

Consider the following compounds; for each one, report its Plant response rating, Kochia.
# Tested on: kochia (Kochia scoparia)
# experiment: Test C pre-/postemergence: kochia
# Format: in vivo
# run.parameters: Postemergence, 250 g ai/ha; scale 0 to 100

Observe how each entry below is paired with its result.
compound | experimental.system | Plant response rating, Kochia
Cc1nn(-c2ccc(C(F)(F)F)cn2)nc1Cc1cccc(C(F)(F)F)c1 [Compound 106] | kochia (Kochia scoparia) | 90
CCc1nn(-c2ccc(C(F)(F)F)cc2)nc1Cc1ccnc(C(F)(F)F)c1 [Compound 155] | kochia (Kochia scoparia) | 95
COc1nn(-c2cccc(F)c2)nc1Cc1ccnc(C(F)(F)F)c1 [Compound 139] | kochia (Kochia scoparia) | 90

I would be grateful if you could provide Plant response rating, Kochia for each of the following entries.
1. CCOc1nn(-c2ccc(C(F)(F)F)cc2)nc1Cc1ccnc(C(F)(F)F)c1 [Compound 164]
2. FC(F)(F)c1ccc(-n2nc(Cl)c(Cc3ccnc(C(F)(F)F)c3)n2)cc1 [Compound 28]

1. 90
2. 95
